system: 786-0; assay: NCI tumour cell line growth inhibition, 48 h
Structures can show the parent of a compound that is named as a salt. Activity calls are given as the source filed them. Cut-off read from the data, not from the text of the source: active = GI50 up to about 1.1 µM and inactive = higher.
Possible outcomes: label 1 for active, label 0 for inactive

1) S=C(S)NCNC(=S)S : label 0
2) O=C(Nc1cccc(O)c1)C(=O)C(C(=O)c1ccc(Cl)c(Cl)c1)C1OC(=O)c2ccccc21 (stereo not given) : label 0
3) Cc1cc(C)n2c(-c3ccccc3)c(C)cc2n1 : label 0
4) CO/N=C(/C(=O)Nc1c[n+](CC(=O)[O-])cs1)c1csc(N)n1 : label 0
5) C=CCN1CC2CN=NC2(C#N)C1 (stereo not given) : label 0
6) C=CCn1c(-c2ccc(-c3cs/c(=N\N=O)n3CC=C)cc2)cs/c1=N\N=O : label 0
7) CN[C@@H]1[C@H](O)[C@H](NC)[C@H]2O[C@@]3(O)C(=O)C[C@@H](C)O[C@H]3O[C@@H]2[C@H]1O [SPECTINOMYCIN SULFATE] : label 0
8) Cc1ccc(NC(=O)/C(Cl)=C(/Cl)C(=O)O)cc1 : label 0
9) Cc1cc(C)c2c(O)cc(-c3ccc4ccccc4c3)nc2n1 : label 0
10) Cc1ccc(NC(=O)c2ccc(OP(=O)(O)Nc3ccc(C)cc3)cc2)cc1 : label 0
11) Cc1cccc(C(C)C)c1NC(=O)CCl : label 0
12) C=CCCCC(C#N)(c1ccccc1)N1CCCC1 (stereo not given) : label 0
13) CCOC(=O)/C=C(/C(=O)OCC)n1cc(C)c(=O)[nH]c1=O : label 0
14) Cc1c2c(c(C)n1-c1ccccc1)C(=O)N(CCN1CCN(c3cccc(C(F)(F)F)c3)CC1)C2=O : label 0
15) O=S1(=O)NC2CCC3NS(=O)(=O)NC4CCC(N1)N4S(=O)(=O)N23 (stereo not given) : label 0
16) Cc1nc(N)nc(S)c1CCCNc1ccccc1 : label 0
17) CCCCc1c2c(nc3c1CCC/C3=C\c1ccccc1)C(=O)CCC2 : label 0
18) CC(C)=CC1C(C(=O)Oc2ccccc2C(C)C)C1(C)C (stereo not given) : label 0
19) CC(=O)O[C@@]12CO[C@@H]1C[C@H](O)[C@@]1(C)C(=O)[C@H](O)C3=C(C)[C@@H](OC(=O)[C@H](O)[C@@H](NC(=O)OC(C)(C)C)c4ccccc4)C[C@@](O)([C@@H](OC(=O)c4ccccc4)[C@H]21)C3(C)C : label 1
20) OCc1c2c(cc3c1CC1(C3)Cc3cc4c(c(CO)c3C1)CCC4)CCC2 : label 0

* * *

The following compounds are shown together with reported GI50 values.
tested on: T47D; assay: NCI tumour cell line growth inhibition, 48 h
Where a name gives a salt, the structure may show the parent alone. The source made the active and inactive calls. Rule as the data show it: active = GI50 up to about 1.1 µM and inactive = higher.
test_readout: GI50

1. CN[C@@H]1[C@H](O)[C@H](NC)[C@H]2O[C@@]3(O)C(=O)C[C@@H](C)O[C@H]3O[C@@H]2[C@H]1O [SPECTINOMYCIN SULFATE] : > 100 µM (inactive)
2. N#Cc1ccc2oc3ccc(C#N)cc3c(=O)c2c1 : > 100 µM (inactive)
3. OCc1c2c(cc3c1CC1(C3)Cc3cc4c(c(CO)c3C1)CCC4)CCC2 : 12.7 µM (inactive)
4. O=C1C=CC2(O[C@H](c3ccccc3)[C@@H](c3ccccc3)O2)C(SC(=O)c2ccccc2)C1 (stereo not given in full) : 2.06 µM (inactive)
5. Cc1ccc(S(=O)(=O)[C@@H](Cl)[C@H]2N=C(Cl)NN=C2c2ccccc2)cc1 : 28.8 µM (inactive)
6. COc1ccc(C2=C(OC(=O)N(C)C)c3cccn3-c3cc(C(F)(F)F)ccc3S2)cc1 : 3.47 µM (inactive)
7. N#CC(Cl)CS(=O)(=O)c1ccccc1 (stereo not given) : 2.85 µM (inactive)
8. Cn1c(=O)cc(NCCc2ccccc2)[nH]c1=O : 54.5 µM (inactive)
9. CN(C)C1(N(C)C)Oc2c(c(=O)n(C)c(=O)n2C)C(c2ccc(F)cc2)C1(F)F (stereo not given) : > 100 µM (inactive)
10. CN1CCC(O)(OC(=O)C(c2ccccc2)C2(O)CCCC2)CC1 (stereo not given) : > 100 µM (inactive)

* * *

test system: SF-539; assay: NCI tumour cell line growth inhibition, 48 h
Activity calls are given as the source filed them. Cut-off read from the data, not from the text of the source: active = GI50 up to about 1.1 µM and inactive = higher.
Possible outcomes: active, inactive

1. Cc1ccc(NC(=O)c2ccc(OP(=O)(O)Nc3ccc(C)cc3)cc2)cc1 : inactive
2. CC1=CC2=C(C#N)C(=O)OC2(C)C(c2ccccc2)C1 (stereo unspecified) : inactive
3. O=C1C=CC2(O[C@H](c3ccccc3)[C@@H](c3ccccc3)O2)C(SC(=O)c2ccccc2)C1 (stereo partly specified) : inactive
4. Oc1cc(-c2cccc(Cl)c2)nc2cc3c(cc12)OCO3 : active
5. N#Cc1ccc(Nc2cnc3ccc(N)cc3n2)cc1 : inactive
6. COc1c(OC2OC(CO)C(O)C(O)C2O)cc2c(c1OC)-c1ccc(OC)c(=O)cc1C(NC(C)=O)CC2 (stereo unspecified) : inactive
7. CSc1nc(N)c2c(-c3ccccc3)c3c(nc2n1)CCCC3 : inactive
8. CC(=O)ON1C(=O)c2cccc3cccc(c23)C1=O : inactive
9. CCCCCC(=O)N[C@H]1CCc2cc(O)c(O)c(O)c2-c2ccc(SC)c(=O)cc21 : inactive
10. CC(C)(C)OC(=O)NCC(=O)NC1c2ccsc2/C(=N/O)[C@H]1O (stereo partly specified) : inactive
11. Cc1cc(C)n2c(-c3ccccc3)c(C)cc2n1 : inactive

* * *

test system: HT-29; assay: NCI tumour cell line growth inhibition, 48 h
Active and inactive are the calls of the source. Rule as the data show it: active = GI50 up to about 1.1 µM and inactive = higher.
test_readout: GI50

1) Cc1cccc(C(C)C)c1NC(=O)CCl : 49.1 µM (inactive)
2) NNc1nnc(CCCCCCCCc2nnc(NN)n2N)n1N : > 100 µM (inactive)
3) CC(=O)n1c(=O)c2cc3c(=O)n(-c4cccc(C#N)c4)c(=O)c3cc2c1=O : > 100 µM (inactive)

* * *

system: Hs-578T; assay: NCI tumour cell line growth inhibition, 48 h
Calls of active or inactive are those of the source. Rule as the data show it: active = GI50 up to about 1.1 µM and inactive = higher.
The following compounds are shown together with reported GI50 values.
test_readout: GI50

1) Cc1cc(Cl)ccc1OCC(=O)Nc1nc(N)nc(N)n1 : > 100 µM (inactive)
2) CC(C)(C)[Si](C)(C)OCC1OC(n2cnc3c(N)ncnc32)C(O)C1O (stereo unspecified) : 44.5 µM (inactive)
3) CC(Br)CN(CC(C)Br)c1ccc2c(c1)Cc1ccccc1-2 (stereo unspecified) : 13.4 µM (inactive)
4) CC(C)(C)c1cc2c(c(C(C)(C)C)c1O)CC(=O)O2 : 26.4 µM (inactive)
5) NCCOc1cccc(C2(N3CCCCC3)CCCCC2)c1 : 16.9 µM (inactive)
6) c1cc(-c2cnc(-c3ccc4c(c3)CCCO4)o2)ccn1 : 17.1 µM (inactive)
7) CN(CCCCN1CCCC1)CCCCN(C)C(=O)Cc1ccc(Cl)c(Cl)c1 : 19.5 µM (inactive)
8) N#CC1=C(N)N(c2ccccc2)C(c2ccco2)C1(C#N)C#N (stereo unspecified) : 36.6 µM (inactive)
9) O=C1C=CC2(O[C@H](c3ccccc3)[C@@H](c3ccccc3)O2)C(SC(=O)c2ccccc2)C1 (stereo partly specified) : 1.62 µM (inactive)
10) CCC1C(c2cc(OC)c(OC)c(OC)c2)c2cc3c(cc2OC1N1CCOCC1)OCO3 (stereo unspecified) : 3.02 µM (inactive)
11) C=C1CC2(CC(c3ccccc3Cl)OC(c3ccccc3Cl)C2)OC1=O (stereo unspecified) : 1.88 µM (inactive)

* * *

The following compounds are shown together with reported GI50 values.
tested on: OVCAR-4; test: NCI tumour cell line growth inhibition, 48 h
Activity calls are given as the source filed them. No stated cut-off is given here; in the data, active = GI50 up to about 1.1 µM and inactive = higher.
test_readout: GI50

1) CC(C)(/N=N/C(C)(C)C(=N)N)C(=N)N : > 100 µM (inactive)
2) COc1ccc(C2Oc3ccc(Cl)cc3C=C2[N+](=O)[O-])cc1OC (stereo unspecified) : 1.93 µM (inactive)
3) COC(=O)C(/C(=N/NC(N)=O)C(=O)Nc1c(C)cccc1C(C)(C)C)c1nc2ccc(Cl)cc2nc1O (stereo unspecified) : > 100 µM (inactive)
4) CC1=NN(c2ccccc2)C(=O)C1C(=O)C(=O)Nc1ccc(C)cc1C (stereo unspecified) : > 100 µM (inactive)
5) Cc1c2c(c(C)n1-c1ccccc1)C(=O)N(CCN1CCN(c3cccc(C(F)(F)F)c3)CC1)C2=O : 7.35 µM (inactive)
6) NCCOc1cccc(C2(N3CCCCC3)CCCCC2)c1 : 35.9 µM (inactive)
7) COc1cc(C2SCC(=O)N2c2ccc(-n3c(-c4ccccc4)nc4ccccc4c3=O)cc2)ccc1O (stereo unspecified) : 65.6 µM (inactive)
8) CCCCCNC(=O)c1cc2cc(CCl)ccc2oc1=O : 7.23 µM (inactive)
9) Cc1cc(O)c(C(C)C)cc1NC(=O)Nc1cccc2ccccc12 : 6.43 µM (inactive)
10) COC(=O)c1c(O)ccc2c1c1c(n2Cc2ccc(OC)cc2)C(=O)c2ccccc2C1 : 30.8 µM (inactive)
11) CCC(CO)COC(=O)/C=C/C(=O)OCC(CC)CO (stereo unspecified) : > 100 µM (inactive)
